Test system: MDA-MB-435 melanoma
test: NCI-60 one-dose screen, 48 h
assay.context: 10 µM unless noted
The panel holds about 83,000 compounds, 20% with a hit somewhere; the sample as a whole holds those more often. The source made the active and inactive calls. Rule for the calls: active = growth percent below 10; inactive = the rest.
Outcome codes: active, inactive

# compound, assigned.category
measured = [
    ("O=C(Nc1ccc(F)cc1F)c1cc(Cl)ccc1O", "active"),
    ("O=c1nc2sc3nc4ccccc4cc3cc-2s1", "inactive"),
    ("COc1ccc(-c2nc(N3CCN(C(=O)C4CCCCC4)CC3)c3c4c(sc3n2)CCCC4)cc1", "active"),
    ("Cc1ccc2sc3c(NCCCNCCO)nc4ccccc4c3c(=O)c2c1", "active"),
    ("NCCCNc1nc2ccccc2c2c(=O)c3cc(F)ccc3sc12", "active"),
    ("OCCNc1nc(Nc2ccc(C3=NN(c4cc(Cl)cc(Cl)c4)C(c4ccc(C(F)(F)F)cc4)C3)cc2)nc(N2CCOCC2)n1 (stereo not given)", "inactive"),
    ("CCOC(=O)C(CC(=O)O)=C(C(=O)OCC)C(=O)OCC", "inactive"),
    ("CC(=O)n1cc(-c2c[nH]c3ccccc23)c(-c2ccc(Cl)cc2)n1", "inactive"),
    ("C=C[C@@H]1CCC/C=C/[C@@H]2C[C@H](O)C[C@H]2[C@H](O)/C=C/C(=O)O1", "inactive"),
    ("CSc1nc2c(c(=O)n1C)N=C1c3ccccc3C(=O)C1C(c1ccccc1)N2 (stereo not given)", "active"),
]
